The entries below pair compounds with pIC50 values for 11-beta-hydroxysteroid dehydrogenase 1 (Homo sapiens, UniProt P28845), as found in several publications.
pIC50: −log10 of the molar value.

Retrieve pIC50 on 11-beta-hydroxysteroid dehydrogenase 1 (Homo sapiens, UniProt P28845); query CC(C)C1(C)SC(N[C@@H](C)C2CCCCC2)=NC1=O (stereo partly drawn)
> 7.70

Report value: pIC50, system: 11-beta-hydroxysteroid dehydrogenase 1 (Homo sapiens, UniProt P28845), compound: C[C@@H](c1ccc(-c2ccc(C(=O)N(C)C)nc2)cc1)N1CCC2(CCC3(CC2)OCC(C)(C)CO3)OC1=O
< 5.00

# return pIC50 for Cn1c2c(sc1=O)CCN(C(=O)c1cc3ncc(Br)cn3n1)CC2 , test system: 11-beta-hydroxysteroid dehydrogenase 1 (Homo sapiens, UniProt P28845)
< 5.00
